Target: T1, huCD33-R69 stably expressed on Jurkat cells (human, UniProt P20138 18-364)
T1 construct: whole, on cells; >200,000 receptors per cell; also called CD33 WT; CD33^ARG69
T1 sequence (P20138 18-364): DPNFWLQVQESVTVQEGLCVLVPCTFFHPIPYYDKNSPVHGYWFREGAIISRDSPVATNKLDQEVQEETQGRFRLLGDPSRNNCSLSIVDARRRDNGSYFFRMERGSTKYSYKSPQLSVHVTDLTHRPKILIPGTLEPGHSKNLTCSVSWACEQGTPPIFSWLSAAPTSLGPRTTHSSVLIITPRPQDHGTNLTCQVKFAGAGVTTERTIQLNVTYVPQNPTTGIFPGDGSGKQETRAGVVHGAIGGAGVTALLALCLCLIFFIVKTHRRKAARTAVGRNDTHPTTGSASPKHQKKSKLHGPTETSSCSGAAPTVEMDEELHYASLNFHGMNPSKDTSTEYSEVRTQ
Assay: FACS on cells;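 further: fixed Jurkat cells bearing either CD33 variant, barcoded by dye, exposed to myc-tagged scFv periplasmic extracts, detected with anti-myc PE antibody and read by flow cytometry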
MEASURED_METRIC: geometric mean MFI fold change over Jurkat parental

BINDER	RECORDED_RESULT
Polypeptide No. 16 (scFv, V domains shown, scFv) VH: EVQLVESGGGLVKPGGSLRLSCAASGFTFSDNSMNWVRQAPGKGLEWVSYISSSGSTIYYADSVKGRFTISRDDSKNTLYLQMNSLKTEDTAVYYCARGRASSWPNWFDPWGQGTLVTVSS VL: DIVMTQSPLSLPVTPGEPASISCRSSQSLLHSNGYNYLDWYLQKPGQSPQLLIYSASNLQSGVPDRFSGSGSGTDFTLKISRVEAEDVGVYYCMQALQTPPTFGQGTKLEIKR	2 to 10 fold
Polypeptide No. 25 (scFv, V domains shown, scFv) VH: QVQLVQSGAEVKKPGASVKVSCKASGYTFTGYYMHWVRQAPGQGLEWMGRINPNGGSTTYAQKFQGRVTMTRDTSTSTVYMELSSLRSEDTAVYYCARDDFYYYYLDFWGKGTTVTVSS VL: DIQMTQSPSSLSASVGDRVTITCRASQSINDWLAWYQQKPGKAPKLLIYAASNLQSGVPSRFSGSGSGTDFTLTISSLQPEDFATYYCQQGYSTPPTFGQGTKVEIKR	> 30 fold
Polypeptide No. 40 (scFv, V domains shown, scFv) VH: QVQLVQSGAEVKKPGASVKVSCKASGYTFTDYHMHWVRQAPGQGLEWMGWMSPNSGNTGYAQNFQGRVTMTRDTSTSTVYMELSSLRSEDTAVYYCARADYYGSDYVKFDYWGQGTLVTVSS VL: DIQMTQSPSSLSASVGDRVTITCRVSQGISSYLNWYQQKPGKAPKLLIYEASTLESGVPSRFSGSGSGTDFTLTISSLQPEDFATYYCQQGYSTPPTFGQGTKVEIKR	< 2 fold
